assay details: Cytotoxicity against HELF cells
Type: cell-based
condition set: human
observation type: MCC (µM)
Numbers only, in µM.

Q: Which MCC reading was recorded for the compound COC(=O)C[C@H](NC(=O)OC(C)(C)C)C(=O)N(Cc1ccc(F)cc1)C1(C(=O)NCc2ccccc2)CCN(Cc2ccccc2)CC1 ?
Ans: 100

---

Kindly supply the reported CC50 at 72 h values for the records listed here.
assay details: Cytotoxicity against MDCK cells assessed as reduction in cell viability measured after 72 hrs by MTS assay
Assay type: cell-based, Canis lupus familiaris
condition set: dog
One number for each entry, in µM.

These recorded examples may help you get a feel for the data.
{"molecule": "COC(=O)C[C@H](NC(=O)OC(C)(C)C)C(=O)N(Cc1ccc(Cl)cc1)C1(C(=O)NCc2ccccc2)CCN(Cc2ccccc2)CC1", "observed": 63}
{"molecule": "CCC(C)N(C(=O)[C@H](CC(=O)OC)NC(=O)OC(C)(C)C)C1(C(=O)NCc2ccccc2)CCN(Cc2ccccc2)CC1 (some centres not stated)", "observed": 53}
{"molecule": "COC(=O)C[C@H](NC(=O)OC(C)(C)C)C(=O)N(Cc1ccc(F)cc1)C1(C(=O)NCc2ccccc2)CCN(Cc2cc(F)cc(F)c2)CC1", "observed": 84}
{"molecule": "COC(=O)C[C@H](NC(=O)OC(C)(C)C)C(=O)N(Cc1ccc(F)cc1)C1(C(=O)NCc2ccccc2)CCN(Cc2cccc(F)c2)CC1", "observed": 73}

Proceed to the following item.
Q: # CC50 at 72 h lookup, item COC(=O)C[C@H](NC(=O)OC(C)(C)C)C(=O)N(Cc1ccc(C(F)(F)F)cc1)C1(C(=O)NCc2ccccc2)CCN(Cc2ccccc2)CC1
Ans: 54

---

assay details: Selectivity index, ratio of CC50 for MDCK cells to EC50 for antiviral activity against Influenza A virus (A/Puerto Rico/8/1934(H1N1)) infected in MDCK cells
Format: toxicity, cell-based
condition set: dog, read-out: Ratio CC50/EC50
observation type: selectivity ratio
One number for each entry.

{"chem smiles": "CC[C@H](C)[C@H](NC(=O)OCc1ccccc1)C(=O)N(C1CC1)C1(C(=O)NC(C)(C)C)CCN(Cc2ccccc2)CC1", "observed": 13}

Q: Which selectivity ratio value belongs to CC(C)(C)OC(=O)N[C@@H](CC(N)=O)C(=O)N(Cc1ccc(F)cc1)C1(C(=O)NCc2ccccc2)CCN(Cc2ccccc2)CC1 ?
Ans: 26

---

study system: UniProt P07858
assay details: Inhibition of human liver cathepsin B using Z-Phe-Arg-AMC as substrate preincubated for 15 mins followed by substrate addition and measured for 60 mins by fluorescence assay
condition set: time 75.0 min
Active and inactive are the calls of the source. No cut-off for these calls is given here.

{"chem smiles": "COC(=O)C[C@H](NC(=O)OCc1ccccc1)C(=O)N(C1CC1)C1(C(=O)NCc2ccccc2)CCN(Cc2ccccc2)CC1", "inhibition": "inactive"}
{"chem smiles": "COC(=O)C[C@H](NC(=O)OC(C)(C)C)C(=O)N(Cc1ccc(F)cc1)C1(C(=O)NCc2ccccc2)CCN(Cc2ccccc2)CC1", "inhibition": "inactive"}
{"chem smiles": "CC(C)(C)OC(=O)N[C@@H](CC(N)=O)C(=O)N(Cc1ccc(F)cc1)C1(C(=O)NCc2ccccc2)CCN(Cc2ccccc2)CC1", "inhibition": "inactive"}
{"chem smiles": "CC(C)(C)OC(=O)N[C@@H](CC(=O)O)C(=O)N(Cc1ccc(F)cc1)C1(C(=O)NCc2ccccc2)CCNCC1", "inhibition": "inactive"}
